Reported values of logP for individual entries
Quantity Name: logP

* O=CO | -0.54
* CCCc1ccc(S(N)(=O)=O)cc1 | 1.64
* CN(C)C(=O)c1ccccc1 | 0.62
* CCCN(CCC)N=O | 1.36
* C=CCNCC=C | 1.11
* CCC(C)n1nnc2ccccc21 (centres undefined) | 2.31
* Nc1cccc(Cl)c1Cl | 2.82
* NS(=O)(=O)c1ccc(O)cc1 | 0.06
* CSc1nnc(C)c(=O)n1N | -0.16
* O=C(O)c1ccccn1 | 0.72
* c1ccc2c(c1)Cc1ccccc1-2 | 4.18
* CN1CCc2cccc3c2C1Cc1ccc(O)c(O)c1-3 (centres undefined) | 2.3
* NC(=O)N(CCCl)N=O | 0.57
* CCc1ccc(OC(=O)NC)cc1 | 2.23
* Oc1ccc(-c2ccccc2)cc1 | 3.2
* COC(=O)C(C#N)=NNc1ccc(S(=O)(=O)C(F)(F)F)cc1 | 4.22
* O=CNc1ccccc1 | 1.15
* Nc1cccc(S(N)(=O)=O)c1 | -0.38
* Cc1cccc2c([N+](=O)[O-])cc[n+]([O-])c12 | 1.59
* O=C(O)c1ccccc1I | 2.4
* NC(CCCc1ccccc1)C(=O)O (centres undefined) | -0.36
* Cc1cc(C)cc(O)c1 | 2.35
* COC(=O)C(C#N)=NNc1ccc(Cl)cc1C | 4.3
* CC(=O)Nc1ccc(OCC(O)CNC(C)C)cc1 (centres undefined) | 0.79
* C=CCc1ccccc1OCC(O)CNC(C)C (centres undefined) | 3.1
* C=CCOc1ccccc1OCC(O)CNC(C)C (centres undefined) | 2.1
* c1ccoc1 | 1.34
* NC(=O)/C=C/c1ccccc1 | 1.43
* CSc1nncc(=O)n1N | 0.38
* OCc1cccc(O)c1 | 0.49
* O/N=C/c1ccccc1 | 1.75
* Cc1c[n+]([O-])c2ccccc2c1[N+](=O)[O-] | 1.06
* CCBr | 1.61
* CCC1(CC)C(=O)NC(=S)NC1=O | 1.5
